Documented microsomal CLint at 1 μM across a set of molecules
# Experiment Description: Stability in liver microsome of mice
# Format: in vitro ADME
# Measurement Conditions: liver microsomes; Mouse liver microsome 0.5 mg protein/mL, compound 1 μM, 37° C.
The answer is to be given in µL/min/mg; state only the numeric part.

>>> recorded_result("COc1cc2nccc(Oc3cnc(NC(=O)c4cn(C5CC5)cc(-c5ccc(F)cc5)c4=O)nc3)c2cc1OC")
5.6
>>> recorded_result("COc1cc2nccc(Oc3ccc(NC(=O)c4cn(C(C)C)cc(-c5ccc(F)cc5)c4=O)nc3)c2cc1OC")
7.4
>>> recorded_result("COc1cc2nccc(Oc3ncc(NC(=O)c4nn(C5CC5)cc(-c5ccc(F)cc5)c4=O)cn3)c2cc1OC")
2.6
>>> recorded_result("COc1cc2nccc(Oc3ccc(NC(=O)c4nn(C(C)C)cc(-c5ccc(F)cc5)c4=O)cn3)c2cc1OC")
7.2
>>> recorded_result("COc1cc2nccc(Oc3ncc(NC(=O)c4cn(C5CC5)nc(-c5ccc(F)cc5)c4=O)cn3)c2cc1OC")
10.8
>>> recorded_result("COc1cc2nccc(Oc3ccc(NC(=O)c4nn(C(C)C)cc(-c5ccc(F)cc5)c4=O)nc3)c2cc1OC")
3.6
>>> recorded_result("COc1cc2nccc(Oc3ncc(NC(=O)c4cn(C(C)C)nc(-c5ccc(F)cc5)c4=O)cn3)c2cc1OC")
2.6
>>> recorded_result("COc1cc2nccc(Oc3cnc(NC(=O)c4nn(C(C)C)cc(-c5ccc(F)cc5)c4=O)nc3)c2cc1OC")
14.2

Sample `COc1cc2nccc(Oc3ccc(NC(=O)c4cn(C5CC5)nc(-c5ccc(F)cc5)c4=O)cn3)c2cc1OC` — what was its microsomal CLint at 1 μM?
2.2

Sample `COc1cc2nccc(Oc3cnc(NC(=O)c4cn(C5CC5)nc(-c5ccc(F)cc5)c4=O)nc3)c2cc1OC` — what was its microsomal CLint at 1 μM?
7

Sample `COc1cc2nccc(Oc3cnc(NC(=O)c4cn(C(C)C)nc(-c5ccc(F)cc5)c4=O)nc3)c2cc1OC` — what was its microsomal CLint at 1 μM?
4

* * *

# Subject Of Test: Ba/F3 LMNA-NTRK1 cells (Homo sapiens)
# Construct: fused on or other part: P02545 (Prelamin-A/C)
# Sequence (P04629 whole entry, change not shown, the tested form may be a part): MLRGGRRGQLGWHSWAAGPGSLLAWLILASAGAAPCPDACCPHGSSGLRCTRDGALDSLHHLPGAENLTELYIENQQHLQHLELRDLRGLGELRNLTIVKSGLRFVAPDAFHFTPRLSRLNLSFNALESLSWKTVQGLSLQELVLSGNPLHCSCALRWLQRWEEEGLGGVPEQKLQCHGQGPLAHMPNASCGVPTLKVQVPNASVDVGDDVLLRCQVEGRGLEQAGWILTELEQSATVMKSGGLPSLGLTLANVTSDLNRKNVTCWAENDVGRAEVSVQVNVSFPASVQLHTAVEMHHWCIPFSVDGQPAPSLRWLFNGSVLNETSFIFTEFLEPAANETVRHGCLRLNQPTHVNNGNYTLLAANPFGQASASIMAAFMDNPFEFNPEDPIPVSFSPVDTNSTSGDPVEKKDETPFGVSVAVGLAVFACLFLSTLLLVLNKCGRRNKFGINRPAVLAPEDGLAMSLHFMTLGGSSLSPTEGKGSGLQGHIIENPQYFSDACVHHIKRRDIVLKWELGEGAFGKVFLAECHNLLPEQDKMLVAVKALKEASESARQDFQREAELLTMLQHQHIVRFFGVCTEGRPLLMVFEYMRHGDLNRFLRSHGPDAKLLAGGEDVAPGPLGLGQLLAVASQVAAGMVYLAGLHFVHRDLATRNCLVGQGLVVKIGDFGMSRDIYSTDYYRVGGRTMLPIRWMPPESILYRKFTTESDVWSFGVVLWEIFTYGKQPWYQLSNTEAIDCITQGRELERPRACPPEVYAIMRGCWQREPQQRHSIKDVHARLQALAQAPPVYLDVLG
# Experiment Description: Cell viability test (CTG), Ba/F3 LMNA-NTRK1
# Format: cell-based
# Measurement Conditions: NTRK1 wild type cell, 72 hours, read-out: IC50 Ba/F3 LMNA-NTRK1
Documented GI50 across a set of molecules
The answer is to be given in nM; state only the numeric part.

Recorded GI50, per entry:
>>> recorded_result("COc1cc2nccc(Oc3ccc(NC(=O)c4nn(C5CC5)cc(-c5ccc(F)cc5)c4=O)nc3)c2cc1OC [Compound 31]")
17.3
>>> recorded_result("COc1cc2nccc(Oc3ncc(NC(=O)c4nn(C(C)C)cc(-c5ccc(F)cc5)c4=O)cn3)c2cc1OC [Compound 34]")
14.3
>>> recorded_result("COc1cc2nccc(Oc3cnc(NC(=O)c4nn(C5CC5)cc(-c5ccc(F)cc5)c4=O)nc3)c2cc1OC [Compound 33]")
73
>>> recorded_result("COc1cc2nccc(Oc3ccc(NC(=O)c4nn(C(C)C)cc(-c5ccc(F)cc5)c4=O)nc3)c2cc1OC [Compound 15]")
3.28
>>> recorded_result("COc1cc2nccc(Oc3ncc(NC(=O)c4cn(C(C)C)nc(-c5ccc(F)cc5)c4=O)cn3)c2cc1OC [Compound 40]")
52.1

Sample COc1cc2nccc(Oc3cnc(NC(=O)c4cn(C(C)C)nc(-c5ccc(F)cc5)c4=O)nc3)c2cc1OC [Compound 39] — what was its GI50?
42.4

Sample COc1cc2nccc(Oc3ccc(NC(=O)c4cn(C(C)C)nc(-c5ccc(F)cc5)c4=O)cn3)c2cc1OC [Compound 38] — what was its GI50?
55.1

* * *

Documented half-life at 1 μM across a set of compounds
# Experiment Description: Stability in liver microsome of mice
# Assay type: in vitro ADME
# Measurement Conditions: liver microsomes; Mouse liver microsome 0.5 mg protein/mL, compound 1 μM, 37° C.
The answer is to be given in h; state only the numeric part.

Recorded half-life at 1 μM, per entry:
>>> recorded_result("COc1cc2nccc(Oc3cnc(NC(=O)c4nn(C5CC5)cc(-c5ccc(F)cc5)c4=O)nc3)c2cc1OC")
2.75
>>> recorded_result("COc1cc2nccc(Oc3ccc(NC(=O)c4nn(C(C)C)cc(-c5ccc(F)cc5)c4=O)nc3)c2cc1OC")
6.42
>>> recorded_result("COc1cc2nccc(Oc3ccc(NC(=O)c4cn(C(C)C)cc(-c5ccc(C)cc5)c4=O)nc3)c2cc1OC")
1.27

Sample `COc1cc2nccc(Oc3cnc(NC(=O)c4cn(C(C)C)cc(-c5ccc(F)cc5)c4=O)nc3)c2cc1OC` — what was its half-life at 1 μM?
5.5

* * *

# Experiment Description: Rat PK evaluation
# Assay type: in vivo
# Measurement Conditions: rat, plasma; SD rats, IV 1 mg/kg, n = 3; read-out: tz1/2 iv (terminal elimination half-life) (converted)
Parameter: half-life (h)
The answer is to be given in h; state only the numeric part.

Recorded half-life, per entry:
>>> recorded_result("COc1cc2nccc(Oc3ncc(NC(=O)c4nn(C(C)C)cc(-c5ccc(F)cc5)c4=O)cn3)c2cc1OC [Compound 34]")
7.46
>>> recorded_result("COc1cc2nccc(Oc3ncc(NC(=O)c4cn(C(C)C)nc(-c5ccc(F)cc5)c4=O)cn3)c2cc1OC [Compound 40]")
9.18
>>> recorded_result("COc1cc2nccc(Oc3cnc(NC(=O)c4cn(C5CC5)cc(-c5ccc(F)cc5)c4=O)nc3)c2cc1OC [Compound 32]")
3.74
>>> recorded_result("COc1cc2nccc(Oc3cnc(NC(=O)c4cn(C(C)C)nc(-c5ccc(F)cc5)c4=O)nc3)c2cc1OC [Compound 39]")
5.89
>>> recorded_result("COc1cc2nccc(Oc3cnc(NC(=O)c4nn(C(C)C)cc(-c5ccc(F)cc5)c4=O)nc3)c2cc1OC [Compound 16]")
4.13
>>> recorded_result("COc1cc2nccc(Oc3ccc(NC(=O)c4nn(C(C)C)cc(-c5ccc(F)cc5)c4=O)cn3)c2cc1OC [Compound 29]")
13.7

Please examine the following record next.
Sample COc1cc2nccc(Oc3ccc(NC(=O)c4cn(C5CC5)cc(-c5ccc(F)cc5)c4=O)nc3)c2cc1OC [Compound 30] — what was its half-life?
8.68

* * *

# Experiment Description: Rat PK evaluation
# Type: in vivo
# Measurement Conditions: rat, plasma; SD rats, PO 5 mg/kg, n = 3; read-out: tz1/2 po (terminal elimination half-life) (converted)
Parameter: half-life (h)
The answer is to be given in h; state only the numeric part.

Recorded half-life, per entry:
>>> recorded_result("COc1cc2nccc(Oc3cnc(NC(=O)c4nn(C(C)C)cc(-c5ccc(F)cc5)c4=O)nc3)c2cc1OC")
5.67
>>> recorded_result("COc1cc2nccc(Oc3ccc(NC(=O)c4nn(C(C)C)cc(-c5ccc(F)cc5)c4=O)cn3)c2cc1OC")
12.2
>>> recorded_result("COc1cc2nccc(Oc3ncc(NC(=O)c4nn(C(C)C)cc(-c5ccc(F)cc5)c4=O)cn3)c2cc1OC")
8.31
>>> recorded_result("COc1cc2nccc(Oc3ncc(NC(=O)c4nn(C5CC5)cc(-c5ccc(F)cc5)c4=O)cn3)c2cc1OC")
7.73
>>> recorded_result("COc1cc2nccc(Oc3ccc(NC(=O)c4cn(C5CC5)cc(-c5ccc(F)cc5)c4=O)nc3)c2cc1OC")
13.4

Sample `COc1cc2nccc(Oc3ccc(NC(=O)c4cn(C(C)C)nc(-c5ccc(F)cc5)c4=O)cn3)c2cc1OC` — what was its half-life?
12.1

Sample `COc1cc2nccc(Oc3ncc(NC(=O)c4cn(C(C)C)nc(-c5ccc(F)cc5)c4=O)cn3)c2cc1OC` — what was its half-life?
8.68

* * *

# Subject Of Test: pCSF1R in CSF1R plasmid-transfected HEK293T cells (Homo sapiens, UniProt P07333)
# Sequence (P07333 20-972): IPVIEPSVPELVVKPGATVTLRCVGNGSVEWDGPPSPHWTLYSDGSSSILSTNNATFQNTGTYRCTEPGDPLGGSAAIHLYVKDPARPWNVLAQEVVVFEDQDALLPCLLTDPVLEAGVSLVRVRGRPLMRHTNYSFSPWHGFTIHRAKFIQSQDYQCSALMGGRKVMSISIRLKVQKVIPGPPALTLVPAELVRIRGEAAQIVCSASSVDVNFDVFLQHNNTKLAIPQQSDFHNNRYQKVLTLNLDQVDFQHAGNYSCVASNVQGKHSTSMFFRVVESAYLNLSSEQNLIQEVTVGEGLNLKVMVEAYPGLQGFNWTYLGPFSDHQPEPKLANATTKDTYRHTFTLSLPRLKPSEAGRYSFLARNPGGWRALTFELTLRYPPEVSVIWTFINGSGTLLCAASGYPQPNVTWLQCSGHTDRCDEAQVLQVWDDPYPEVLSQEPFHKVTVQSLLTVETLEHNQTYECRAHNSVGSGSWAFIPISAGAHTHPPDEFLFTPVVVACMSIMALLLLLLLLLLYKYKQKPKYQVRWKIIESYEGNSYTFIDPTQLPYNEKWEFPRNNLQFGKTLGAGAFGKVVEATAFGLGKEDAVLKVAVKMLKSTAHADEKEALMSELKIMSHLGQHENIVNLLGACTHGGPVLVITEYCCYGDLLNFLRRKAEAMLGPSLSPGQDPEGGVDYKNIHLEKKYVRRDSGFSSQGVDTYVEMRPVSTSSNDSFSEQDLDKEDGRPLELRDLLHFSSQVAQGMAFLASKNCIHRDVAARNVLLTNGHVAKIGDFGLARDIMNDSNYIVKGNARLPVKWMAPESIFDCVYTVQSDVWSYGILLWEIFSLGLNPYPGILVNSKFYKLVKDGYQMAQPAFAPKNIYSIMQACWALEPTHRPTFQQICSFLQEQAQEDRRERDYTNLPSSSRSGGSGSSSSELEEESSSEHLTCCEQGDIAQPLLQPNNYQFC
# Experiment Description: Inhibitory activity on the cell pCSF1R (Western Blot)
# Measurement Conditions: compound 30, 100, 300, 1000 nM, 120 minutes
pIC50: −log10 of the molar value.
Documented pIC50 across a set of compounds

Any idea what pIC50 came out for COc1cc2nccc(Oc3ccc(NC(=O)c4nn(C(C)C)cc(-c5ccc(F)cc5)c4=O)nc3)c2cc1OC [Compound 15] on pCSF1R in CSF1R plasmid-transfected HEK293T cells (Homo sapiens, UniProt P07333)?
6.52 to 7.00

Any idea what pIC50 came out for COc1cc2nccc(Oc3ccc(NC(=O)c4nn(C5CC5)cc(-c5ccc(F)cc5)c4=O)nc3)c2cc1OC [Compound 31] on pCSF1R in CSF1R plasmid-transfected HEK293T cells (Homo sapiens, UniProt P07333)?
7.00 to 7.52
